In this section, each of the binders is paired with its reported fold change of affinity.
biological target: Human CD137 ECD (human); assay: SPR, vs parent H183/L072
Sequence (chain, as listed by the source limits assumed): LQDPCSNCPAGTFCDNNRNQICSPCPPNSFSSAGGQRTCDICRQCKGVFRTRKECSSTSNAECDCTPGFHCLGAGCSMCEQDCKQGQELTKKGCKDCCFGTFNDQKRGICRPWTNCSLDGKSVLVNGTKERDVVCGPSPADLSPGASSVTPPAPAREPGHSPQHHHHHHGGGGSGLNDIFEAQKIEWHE
Return type: number; implicit unit fold.

Consider the following illustrative entries.
| binder | valueReported |
| --- | --- |
| dBBDu183H A98G / dBBDu072L (antibody, name in Kabat numbering, V domains shown) VH: QVQLVESGGGLVQPGRSLRLSCAASGFTFSNAWMHWVRQAPGKGLEWVAQIKDKGNAYAAYYAPSVKGRFTISRDDSKNSIYLQMNSLKTEDTAVYYCHYVHYGSASTVLPAFGVDAWGQGTTVTVSS VL: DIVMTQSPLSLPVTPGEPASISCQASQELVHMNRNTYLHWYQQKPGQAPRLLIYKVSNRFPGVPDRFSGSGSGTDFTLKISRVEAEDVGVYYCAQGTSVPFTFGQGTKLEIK | 0 |
| dBBDu183H V100iW / dBBDu072L (antibody, name in Kabat numbering, V domains shown) VH: QVQLVESGGGLVQPGRSLRLSCAASGFTFSNAWMHWVRQAPGKGLEWVAQIKDKGNAYAAYYAPSVKGRFTISRDDSKNSIYLQMNSLKTEDTAVYYCHYVHYASASTVLPAFGWDAWGQGTTVTVSS VL: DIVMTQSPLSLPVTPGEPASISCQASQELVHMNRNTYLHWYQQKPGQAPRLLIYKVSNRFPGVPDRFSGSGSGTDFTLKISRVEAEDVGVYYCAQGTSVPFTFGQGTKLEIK | 0 |

With those in mind, consider the next binder.
Quick one: fold change of affinity for dBBDu183H L100dN / dBBDu072L (antibody, name in Kabat numbering, V domains shown) VH: QVQLVESGGGLVQPGRSLRLSCAASGFTFSNAWMHWVRQAPGKGLEWVAQIKDKGNAYAAYYAPSVKGRFTISRDDSKNSIYLQMNSLKTEDTAVYYCHYVHYASASTVNPAFGVDAWGQGTTVTVSS VL: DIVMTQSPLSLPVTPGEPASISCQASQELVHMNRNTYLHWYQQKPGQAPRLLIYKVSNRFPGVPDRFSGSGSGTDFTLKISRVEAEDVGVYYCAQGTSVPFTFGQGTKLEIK ?
0
